target-or-system: FAK FAT domain (paxillin-FAT binding) (Homo sapiens)
Construct: FP Buffer containing 20 μM FAT and 0.1 μM TAMRA-LD2
Sequence (Q05397 914-1045 limits assumed): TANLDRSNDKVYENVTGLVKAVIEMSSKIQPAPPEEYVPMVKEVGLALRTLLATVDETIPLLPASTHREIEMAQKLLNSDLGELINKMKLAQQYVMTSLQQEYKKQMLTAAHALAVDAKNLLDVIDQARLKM
test-details: Competition fluorescence polarization (FP) assay, inhibition of TAMRA-LD2 binding to FAT
experimental-conditions: read-out: FP Ki
Positions of bridges follow the written chain, without caps; N, C: chain ends. Non-standard residues stand in square brackets, D forms with d. Residues, ends and D or L forms follow the SMILES beside them. R8 = C=CCCCCCC[C@@](C)(N)C(=O)O; R5 = C=CCCC[C@@](C)(N)C(=O)O; S5 = C=CCCC[C@](C)(N)C(=O)O
Labelling field: enter 1 (yes) if recorded Ki is less than 50 µM. Enter 0 (no) if it equals or exceeds that cut-off.

# compound, assigned-label
records = [
    ("CC(=O)N[C@@H](CC(N)=O)C(=O)N[C@@H](CC(C)C)C(=O)N[C@@H](CO)C(=O)N[C@@H](CCC(=O)O)C(=O)N[C@]1(C)CCCC=CCCC[C@@](C)(C(=O)N[C@@H](CC(C)C)C(=O)N[C@@H](CC(C)C)C(=O)N[C@@H](CCC(=O)O)C(=O)N[C@@H](CC(C)C)C(=O)N[C@@H](CC(N)=O)C(N)=O)NC(=O)[C@H](CCCNC(=N)N)NC(=O)[C@H](CC(=O)O)NC1=O [Peptide 2022, Ac-NLSER5DRS5LLELN-NH2] (Ac-NLSE[R5]DR[S5]LLELN-NH2; staple 5-8)", "0 (no)"),
    ("CC(=O)N[C@@H](CC(N)=O)C(=O)N[C@@H](CC(C)C)C(=O)N[C@@H](CO)C(=O)N[C@@H](CCC(=O)O)C(=O)N[C@@H](CC(C)C)C(=O)N[C@@H](CC(=O)O)C(=O)N[C@@H](CCCNC(=N)N)C(=O)N[C@@H](CC(C)C)C(=O)N[C@]1(C)CCCC=CCCC[C@@](C)(C(=O)N[C@@H](CC(N)=O)C(N)=O)NC(=O)[C@H](CCC(=O)O)NC(=O)[C@H](CC(C)C)NC1=O [Peptide 1921] (Ac-NLSELDRL[R5]LE[S5]N-NH2; staple 9-12)", "0 (no)"),
    ("CC(=O)N[C@@H](CC(N)=O)C(=O)N[C@@H](CC(C)C)C(=O)N[C@]1(C)CCCCCCC=CCCC[C@@](C)(C(=O)N[C@@H](CCC(N)=O)C(=O)N[C@@H](CC(C)C)C(=O)N[C@@H](CC(N)=O)C(N)=O)NC(=O)[C@H](CC(C)C)NC(=O)[C@H](CC(C)C)NC(=O)[C@H](CCCNC(=N)N)NC(=O)[C@H](CC(=O)O)NC(=O)[C@H](CC(C)C)NC(=O)[C@H](CCC(N)=O)NC1=O [Peptide 1910, Ac-NLR8QLDRLLS5QLN-NH2] (Ac-NL[R8]QLDRLL[S5]QLN-NH2; staple 3-10)", "1 (yes)"),
    ("CSCC[C@@H]1NC(=O)[C@H](CC(C)C)NC(=O)[C@H](CCC(=O)O)NC(=O)[C@H](CC(=O)O)NC(=O)[C@H](CC(C)C)NC(=O)[C@H](CCC(=O)O)NC(=O)[C@](C)(NC(=O)[C@@H](NC(=O)[C@H](C)NC(=O)[C@H](CO)NC(C)=O)[C@@H](C)O)CCCCCCC=CCCC[C@@](C)(C(=O)N[C@@H](CO)C(=O)N[C@@H](CC(C)C)C(=O)N[C@@H](CO)C(=O)N[C@@H](CC(=O)O)C(N)=O)NC1=O [Peptide 1916, Ac-SATR8ELDELMS5SLSD-NH2] (Ac-SAT[R8]ELDELM[S5]SLSD-NH2; staple 4-11)", "1 (yes)"),
    ("CC(=O)N[C@@H](CC(N)=O)C(=O)N[C@@H](CC(C)C)C(=O)N[C@@H](CCCNC(=N)N)C(=O)N[C@@H](CCC(=O)O)C(=O)N[C@@]1(C)CCCC=CCCC[C@@](C)(C(=O)N[C@@H](CCCNC(=N)N)C(=O)N[C@@H](CCC(=O)O)C(=O)N[C@@H](CC(C)C)C(=O)N[C@@H](CC(N)=O)C(N)=O)NC(=O)[C@H](CC(C)C)NC(=O)[C@H](CCCNC(=N)N)NC(=O)[C@H](CC(=O)O)NC1=O [Peptide 1931, Ac-NLRES5DRLS5RELN-NH2] (Ac-NLRE[S5]DRL[S5]RELN-NH2; staple 5-9)", "1 (yes)"),
]
